Cited source: ChEMBL document CHEMBL5665443

- target.entity: Endonuclease 8-like 1 (Homo sapiens) (UniProt Q96FI4);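 note: fluorescence at 594 nm from quenched duplex DNA oligonucleotides released by NEIL1 cleavage and strand separation, reported as reduction of this enzyme activity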
- Sequence (Q96FI4 whole entry): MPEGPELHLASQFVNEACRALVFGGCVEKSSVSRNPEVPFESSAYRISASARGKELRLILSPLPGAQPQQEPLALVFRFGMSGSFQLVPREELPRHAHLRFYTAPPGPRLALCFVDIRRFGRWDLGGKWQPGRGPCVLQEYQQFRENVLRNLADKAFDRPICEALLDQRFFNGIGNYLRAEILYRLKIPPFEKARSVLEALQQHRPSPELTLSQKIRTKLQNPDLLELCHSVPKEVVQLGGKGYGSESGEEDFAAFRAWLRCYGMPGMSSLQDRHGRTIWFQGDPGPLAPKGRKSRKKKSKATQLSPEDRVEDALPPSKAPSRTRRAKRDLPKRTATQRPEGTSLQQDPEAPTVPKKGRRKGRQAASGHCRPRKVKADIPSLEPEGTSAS
- condition.set: Compound Concentration 10.0 uM, Hit No
- Description: Inhibition of NEIL1 by quantifying inhibition of NEIL1-mediated cleavage and dissociation of quenched duplex DNA oligonucleotides, measured as fluorescence at 594 nm.
Item-by-item account of inhibition
The figure you give is taken to be in %; do not add the unit.

Reference set (5 entries):
Value of inhibition reported for the molecule COc1ccc(C2(O)OC(=O)C(c3ccc4c(c3)OCO4)=C2Cc2cc(OC)c(OC)c(OC)c2)cc1 (stereo not drawn) is -4.95

Value of inhibition reported for the molecule Cn1c(-c2csc(C3CCN(CC4=NC5N=CC=CC5N4)CC3)n2)nc2ccccc21 (stereo not drawn) is -1.5

Value of inhibition reported for the molecule `c1ccc2oc(-c3csc(C4CCN(Cc5nc6ncccc6[nH]5)CC4)n3)cc2c1` is -4.83

Value of inhibition reported for the molecule `COc1ccc(NC(=O)c2ccc(-c3ccc(-c4noc(C)n4)cc3C)cc2)cc1OCCN(C)C` is 1.34

Value of inhibition reported for the molecule `Cc1cccc(F)c1C(=O)Nc1cnc(-c2cc3c(cc2Cl)OC(F)(F)O3)cn1` is 1.79

***
Value of inhibition reported for the molecule CN1C2CCCC1CC(Nc1ccccc1Br)C2 (stereo not drawn) is -3.4

Value of inhibition reported for the molecule `CC(C)c1cc(Oc2c(Cl)cc(-n3nc(C#N)c(=O)[nH]c3=O)cc2Cl)n[nH]c1=O` is -7.26

Value of inhibition reported for the molecule `CCCCCCCCc1ccc(CC[C@](N)(CO)COP(=O)(O)O)cc1` is 9.14

====

- target.entity: Methyl-CpG-binding domain protein 4 (Homo sapiens);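 note: MBD4 activity read as fluorescence at 594 nm from cleavage and release of a quenched duplex DNA oligonucleotide, with APE1 coupled to incise the strand and raise turnover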
- condition.set: Compound Concentration 10.0 uM, Hit No
- Description: Inhibition of MBD4 by quantifying inhibition of MBD4-mediated cleavage and dissociation of quenched duplex DNA oligonucleotides, measured as fluorescence at 594 nm. To generate a functional strand incision and increase turn-over this assay is coupled to APE1.
parameter: inhibition (%)
The figure you give is taken to be in %; do not add the unit.

Value of inhibition reported for the molecule `N[C@](CC1c2ccccc2Oc2ccccc21)(C(=O)O)[C@H]1C[C@@H]1C(=O)O` is 16.1

Value of inhibition reported for the molecule `CC[C@@H](C[C@H]1COC(N)=N1)c1ccccc1` is 4.05

Value of inhibition reported for the molecule `Cn1ncnc1COc1nn2c(-c3cc(F)ccc3F)nnc2cc1C(C)(C)C` is 6.48

Value of inhibition reported for the molecule `O=C(N[C@@H]1C2CCN(CC2)[C@H]1Cc1cccnc1)c1cc2ccccc2o1` is -7.25

***
Value of inhibition reported for the molecule `CCn1cnc2c(-c3ccc(F)c(-c4ccc(S(=O)(=O)CC)cc4OC)c3)cnnc21` is 19.2

====

- target.entity: Uracil-DNA glycosylase (Homo sapiens) (UniProt P13051);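 note: UNG excision on a quenched double-stranded DNA oligo probe, with APE1 added for strand incision and turnover, read as fluorescence at 594 nm as strands separate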
- Sequence (P13051 whole entry): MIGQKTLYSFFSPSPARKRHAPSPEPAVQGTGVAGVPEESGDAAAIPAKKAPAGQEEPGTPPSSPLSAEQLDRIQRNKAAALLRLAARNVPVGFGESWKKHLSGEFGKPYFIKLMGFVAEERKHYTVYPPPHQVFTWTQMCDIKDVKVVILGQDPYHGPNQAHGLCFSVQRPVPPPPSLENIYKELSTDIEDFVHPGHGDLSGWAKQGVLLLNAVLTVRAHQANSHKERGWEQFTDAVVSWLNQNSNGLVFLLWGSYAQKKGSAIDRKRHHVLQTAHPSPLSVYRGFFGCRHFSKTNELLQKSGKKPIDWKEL
- condition.set: Compound Concentration 10.0 uM, Hit No
- Description: Inhibition of UNG by quantifying inhibition of UNG-mediated cleavage and dissociation of quenched duplex DNA oligonucleotides, measured as fluorescence at 594 nm. To generate a functional strand incision and increase turn-over this assay is coupled to APE1.
Item-by-item account of inhibition
The figure you give is taken to be in %; do not add the unit.

Value of inhibition reported for the compound `COc1ccc(S(=O)(=O)N2c3ccc(Cl)cc3[C@](O)(c3ccccc3Cl)[C@@H]2C(=O)N2CCC[C@H]2C(N)=O)cc1OC` is -8.37

Value of inhibition reported for the compound `COc1cc(Nc2nc(C)cc(-c3cnn4nc(OC)ccc34)n2)cc(C(F)(F)F)c1` is -0.61

Value of inhibition reported for the compound COc1cc(N)c(Cl)cc1C(=O)NC1CN2CCC1CC2 (stereo not given) is -6.64

Value of inhibition reported for the compound `C[C@H](NC(=O)c1cnc2n1[C@](C)(Cc1ccc(C#N)cc1)C(=O)N2c1cc(Cl)c(F)c(Cl)c1)C(=O)NC1(c2ccccn2)CC1` is 7.8

Value of inhibition reported for the compound `COC(c1ccccc1)(c1ccccc1)[C@H](Oc1nc(C)cc(C)n1)C(=O)O` is -5.94

Value of inhibition reported for the compound `CCCCCCCC/C=C\CCCCCCCC(N)=O` is -8.52

Value of inhibition reported for the compound `O=S(=O)(c1ccccc1)c1cnc2c(N3CCNCC3)cccc2c1` is -8.69

Value of inhibition reported for the compound `CCCCN1CCC(COC(=O)c2cc(Cl)c(N)c3c2OCCO3)CC1` is -2.45

***
Value of inhibition reported for the compound COc1ccc(C2(O)OC(=O)C(c3ccc4c(c3)OCO4)=C2Cc2cc(OC)c(OC)c(OC)c2)cc1 (stereo not given) is -1.01

Value of inhibition reported for the compound `CCNC(=O)[C@H]1O[C@@H](n2cnc3c(N)ncnc32)[C@H](O)[C@@H]1O` is -2.94
